# Method Summary: NCI Yeast Anticancer Drug Screen. Data for the sgs1 mgt1 strain (AID 161);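 note: 0% = growth of cultures given vehicle only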
# Measurement Context: S. cerevisiae sgs1 mgt1 strain, at 50.0 µM, stronger effect = higher value
About 79,000 compounds went through this panel and 15% of them were active in at least one assay; those are over-represented in the sample as a whole.
Outcome Measure: growth inhibition (%)

Compound | Unit Name | Reading
O=[N+]([O-])c1ccc(Cl)cc1N/N=C/c1cccs1 | % | -40.8
CC1CC/C(=N\O)CCCCC(=O)O1 (centres undefined) | % | 2.15
COc1ccc(OC)c(C#N)c1C#N (tested in a mixture with another compound) | % | -0.15
CCOC(=O)OC1CCC2(C)C(=CCC3C2CCC2(C)C(C(C)CCCC(C)C)CCC32)C1 (centres undefined) | % | 0.6
NC(=O)CC(Nc1ncc2c(n1)-c1ccccc1OC2)C(=O)O (centres undefined) | % | -10.5
COc1cc(OC)c2cc(C(=O)c3cccc4ccccc34)c(=O)oc2c1 | % | 9.65
O=C(Oc1ccc([N+](=O)[O-])cc1)C1CCCN1C(=O)OCc1ccccc1 (centres undefined) | % | 7.55
O=C(Nc1cc(Cl)c(Cl)cc1Cl)N1CCOCC1 | % | -11.2
OCCCNCc1ccccc1 | % | -20.1
Cc1ccc(S(=O)(=O)OCCNc2ccc([N+](=O)[O-])cc2[N+](=O)[O-])cc1 | % | 6.45
C=CCCC(=O)OC(C)(C)C | % | 21.4
NC(=S)NNC(=O)C(Cc1ccccc1)NC(=O)OCc1ccccc1 (centres undefined) | % | 22.9
CCCCCCCCCCCCCC(=O)OC | % | 16.5
O=C1CCC(C(=O)Nc2ccc(Cl)c(Cl)c2)N1 (centres undefined) | % | 8.5
O=C1C(SCCO)=C(SCCO)C(=O)c2[nH]cnc21 | % | 6.5
Cc1ccc(C)c(NC(=O)C(=O)C(C#N)c2c(Cl)cccc2Cl)c1 (centres undefined) | % | 44.5
C/C(N)=C\c1nc(=O)ccs1 | % | 2.35
CCOc1cc(F)cc([N+](=O)[O-])c1 | % | -20.9
C[N+](C)(C)C1=CC=CC=C1.Br[Br-]Br | % | 0.15
O=c1c(-c2ccc3c(c2)OCO3)coc2cc(O)ccc12 | % | 18.9
N=C(N)c1cc(Cl)c(OCc2ccccc2)c(Cl)c1 | % | 1.15
CCC(C)(O)C(C)(O)CC (centres undefined) | % | 15.4
CCC1CC2CCC(c3cc4c(cc3OC)N(C)C3C(O)(C(=O)OC)C(OC(C)=O)C5(CC)C=CCN6CCC43C65)c3[nH]c4ccccc4c3CCN(C1)C2 (centres undefined) | % | 12.4
CCCCCCCCCCN(CCCCCCCCCC)CC(O)c1cc(-c2ccc(Cl)cc2)nc2ccccc12 (centres undefined) | % | 39.4
